Tested on: U-251
PROCEDURE DETAILS: NCI tumour cell line growth inhibition, 48 h
Active and inactive are the calls of the source. Cut-off read from the data, not from the text of the source: active = GI50 up to about 1.1 µM and inactive = higher.
Listing of recorded GI50 by entry.

{"MOLECULE": "CCN(CC)c1ccc2cc(-c3csc(C)n3)c(=O)oc2c1", "GI50": "57.7 µM (inactive)"}
{"MOLECULE": "O=C(NC(Cc1c[nH]c2ccccc12)C(=O)O)/C(=C/c1ccccc1O)NC(=O)c1ccccc1 (stereo not drawn)", "GI50": "39.1 µM (inactive)"}
{"MOLECULE": "CCN1c2ccccc2-n2c(C)nnc2-c2c(-c3ccccc3)n[nH]c21", "GI50": "18.5 µM (inactive)"}
{"MOLECULE": "C=C(C)[C@H](O)C(O)CC(C)[C@@H]1CCC23CC12CCC1[C@@]2(C)CCC(OC(C)=O)C(C)(C)C2CC(OC2OC(COC(C)=O)C(O)C(O)C2O)[C@]13C (stereo partly drawn)", "GI50": "4.74 µM (inactive)"}
{"MOLECULE": "O=C(Nc1ccc(Cl)cc1)NS(=O)(=O)c1ccc2c(c1)CCC2", "GI50": "30.7 µM (inactive)"}
{"MOLECULE": "CN(C)CCOC1(CC2CCCCC2)CCC(C(C)(C)C)CC1 (stereo not drawn)", "GI50": "4.74 µM (inactive)"}
{"MOLECULE": "COC1OC(COC(=O)NCCCCC(=O)C(F)(F)F)C(O)C(O)C1O (stereo not drawn)", "GI50": "> 100 µM (inactive)"}
{"MOLECULE": "CC1(C)CCC[C@](C)([C@H]2CC[C@]3(C)[C@@H]2[C@H](O)C[C@@H]2[C@@]4(C)CC[C@H](O)C(C)(C)[C@@H]4[C@H](O)C[C@]23C)O1", "GI50": "12.3 µM (inactive)"}
